Where these numbers come from: patent US5942508A

- Method Summary: physchem
- Condition Notes: 0.1% phosphate buffer, pH 8
Property Label: solubility (µg/mL)
Respond with the bare value in µg/mL.

Lab book: solubility of CCn1cc(C(=O)O)c(=O)c2cc(F)c(N3CCNCC3)cc21 noted as 360

----------
- Method Summary: Effect of arylcarboxylic acid on solubility of pyridonecarboxylic acid - 2 (Table 2)
- Format: physicochemical
- Condition Notes: 0.1% aqueous sodium dihydrogenphosphate, pH 9, without addition, pH 9, 0.1% aqueous sodium dihydrogenphosphate, 25° C., one week
Quick list: solubility thermodynamic at 168 h per entry.
All answers are understood in µg/mL, so give the number only.

> print(dat)
                                   molecule  recorded.value
1  CCn1cc(C(=O)O)c(=O)c2cc(F)c(N3CCNCC3)nc21 [enoxacin]             710

The reported solubility thermodynamic at 168 h of the molecule CCn1cc(C(=O)O)c(=O)c2cc(F)c(N3CCNCC3)cc21 [norfloxacin] was 1060
